# System: Leishmania donovani
# assay_notes: Antileishmanial activity against Leishmania donovani MHOM/IN/80/Dd8 promastigotes harboring luciferase reporter gene after 72 hrs by Steady-Glo luminescence assay
# Type: functional, organism-based
# condition_details: MHOM/IN/80/Dd8, 72 h
endpoint_name: pIC50
Numbers only, as −log10 of the molar value.

Look over these answered cases.
COc1ccc(C(c2nnnn2C(C)(C)C)N2CCc3c([nH]c4ccccc34)C2)cc1OC (centres undefined) ... 5.24
Clc1ccc(C(c2nnnn2C2CCCCC2)N2CCc3c([nH]c4ccccc34)C2)cc1 (centres undefined) ... 5.54

Here is the next item to consider.
Ask | Checklist item: pIC50 tested on Leishmania donovani, entry Fc1ccc(C(c2nnnn2C2CCCCC2)N2CCc3c([nH]c4ccccc34)C2)cc1 (centres undefined) , value?
Reply | 4.84
